TARGET DESC: T1, Pum-HD (Drosophila melanogaster, UniProt P25822 1093-1426)
T1 sequence: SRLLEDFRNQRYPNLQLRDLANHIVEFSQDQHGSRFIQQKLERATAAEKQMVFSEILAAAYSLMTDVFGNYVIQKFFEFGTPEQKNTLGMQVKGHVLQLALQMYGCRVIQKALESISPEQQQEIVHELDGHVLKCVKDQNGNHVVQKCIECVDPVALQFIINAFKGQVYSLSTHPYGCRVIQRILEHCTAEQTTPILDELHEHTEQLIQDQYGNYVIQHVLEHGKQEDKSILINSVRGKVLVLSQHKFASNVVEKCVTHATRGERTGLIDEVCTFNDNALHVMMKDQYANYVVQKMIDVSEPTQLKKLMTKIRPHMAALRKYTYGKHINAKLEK
PROTOCOL NOTES: ITC
MEASURE NAME: pKd
Numbers only, as −log10 of the molar value.

**Q:** Please give the documented pKd of UUGUUGUCGAAAAUUGUACAUAA (structured_RNA) [NRE2 (23-mer)]
**A:** 8.70
